experiment: yeast display, Sf9 membrane polyspecificity reagent, FACS + sequencing; frameworks hold sequencing errors
experimentalEndpoint: polyreactivity (PSR sort gate)

What does the data say about its polyreactivity (PSR sort gate)? Entry: "QVQLVESGGGLVQAGGSLRLSCAATGRIFHSNAMGWYRQAPGKERELVAVITKNGGSTYYADSVKGRFTISRDNAKNTVYLQMNSLKPEDTAVYYCNKRAQYTYYGRDYWGQGTQVTVSS" high polyreactivity

Here is the next sequence: "QVQLEESGGGLVQAGGSHRLSCAASGSIIYPYTMGWYRQAPRKERELVAAISGGGRTYYADSVKGRFTISRDNAKNTVYLQMNSLIPEDTAVYYCAARRGYPSGYEYWGQGTQVSVSS" high polyreactivity
